METHOD: ATG_ERE_CIS: Attagene CIS-FACTORIAL HepG2 Assay for Estrogen Response Element (ERE) (AID 2282940)
STUDY_CONDITIONS: HepG2 ERE cis-reporter, Attagene RNA transcript; actives raise or lower the signal
Activity calls are given as the source filed them. The calls were made as follows: active = hit-call score of the fitted dose curve at least 0.9, where 1 is the maximum; inactive = score below 0.9.
ASSAY_READOUT: outcome

# count of solved cases: 8
{"columns": ["MOLECULE", "outcome"],
 "data": [
  ["CCc1ccccc1C", "inactive"],
  ["CCC(=O)c1ccccc1", "inactive"],
  ["CCc1ccccc1N", "inactive"],
  ["Nc1ncc([N+](=O)[O-])s1", "inactive"],
  ["CCSC(C)CC1CC(=O)C(C(CC)=NOC/C=C/Cl)=C(O)C1 (stereo unspecified)", "inactive"],
  ["CC(=O)c1cc(C(C)(C)C)cc2c1CCC2(C)C", "inactive"],
  ["CNC", "inactive"],
  ["CCC[CH2][Sn]([Cl])([Cl])[Cl]", "inactive"]
]}

Please supply outcome for each of the following items, keeping them in order.
1. CC(=O)C(Cl)C(=O)N(C)C (stereo unspecified)
2. CC(=O)C=C(C)C
3. CCCCCCCCCl

Return:
inactive
inactive
inactive
